Target system: T1, human CD33 extracellular domain (human, UniProt P20138 18-259)
T1 construct: soluble monomeric ECD; also called human CD33 ECD; hCD33
Experimental protocol: BLI Octet, IgG loaded;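 further: IgGs captured on AHC biosensors, exposed to 100 nM antigen for 3 min association then 3 min dissociation in buffer, kinetics fitted with a 1:1 binding model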
Reported property: pKd
Give bare numbers, as −log10 of the molar value.

Previously resolved entries follow.
- ADI-10164 IgG (antibody, V domains shown, IgG; also called Ab18) VH: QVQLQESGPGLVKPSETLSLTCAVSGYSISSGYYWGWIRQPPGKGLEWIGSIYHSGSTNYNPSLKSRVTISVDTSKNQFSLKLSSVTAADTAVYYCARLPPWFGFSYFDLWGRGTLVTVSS VL: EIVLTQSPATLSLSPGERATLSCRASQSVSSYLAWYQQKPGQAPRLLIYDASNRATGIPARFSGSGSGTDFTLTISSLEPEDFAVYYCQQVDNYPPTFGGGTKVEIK: 8.37
- ADI-11826 IgG (antibody, V domains shown, IgG; also called Ab26) VH: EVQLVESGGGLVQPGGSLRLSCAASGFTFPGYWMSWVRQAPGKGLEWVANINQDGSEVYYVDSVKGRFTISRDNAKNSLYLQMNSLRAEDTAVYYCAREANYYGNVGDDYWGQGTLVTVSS VL: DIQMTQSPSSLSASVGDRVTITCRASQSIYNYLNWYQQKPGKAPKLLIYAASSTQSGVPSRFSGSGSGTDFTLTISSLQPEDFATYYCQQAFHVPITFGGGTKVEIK: 9.41
- ADI-10157 IgG (antibody, V domains shown, IgG; also called Ab13) VH: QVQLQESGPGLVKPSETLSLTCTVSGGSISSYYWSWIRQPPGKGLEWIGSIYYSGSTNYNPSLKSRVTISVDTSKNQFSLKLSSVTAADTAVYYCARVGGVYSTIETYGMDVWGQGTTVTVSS VL: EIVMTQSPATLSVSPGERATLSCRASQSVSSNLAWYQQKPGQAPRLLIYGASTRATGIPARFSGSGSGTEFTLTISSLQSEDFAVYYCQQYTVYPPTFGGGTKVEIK: 8.38

We next turn to a different binder, shown below.
Problem: I am curious: what pKd value has been reported for ADI-10177 IgG (antibody, V domains shown, IgG; also called Ab2) VH: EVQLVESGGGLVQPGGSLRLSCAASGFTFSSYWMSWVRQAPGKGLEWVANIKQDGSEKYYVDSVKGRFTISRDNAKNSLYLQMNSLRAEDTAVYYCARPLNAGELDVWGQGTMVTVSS VL: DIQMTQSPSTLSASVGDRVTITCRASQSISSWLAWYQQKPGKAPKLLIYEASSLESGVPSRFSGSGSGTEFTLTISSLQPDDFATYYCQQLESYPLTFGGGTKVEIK ?
Solution: 8.44

Each recorded value in this set is attributed to patent US20220380459A1.
